Parameter IC50, tested on human GST-CLK1 (129-end) (Homo sapiens, UniProt P49759), listed per item.
Sequence (P49759 129-484 limits assumed): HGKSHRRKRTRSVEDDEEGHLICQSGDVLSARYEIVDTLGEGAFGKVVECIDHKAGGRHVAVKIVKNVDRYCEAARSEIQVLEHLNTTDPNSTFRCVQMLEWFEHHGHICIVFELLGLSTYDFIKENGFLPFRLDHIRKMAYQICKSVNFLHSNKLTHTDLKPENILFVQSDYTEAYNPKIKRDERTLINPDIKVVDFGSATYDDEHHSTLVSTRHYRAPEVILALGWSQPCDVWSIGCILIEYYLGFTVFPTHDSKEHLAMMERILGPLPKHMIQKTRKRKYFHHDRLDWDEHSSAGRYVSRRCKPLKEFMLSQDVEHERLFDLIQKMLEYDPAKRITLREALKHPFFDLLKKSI
Counter-ions that a name gives are not always drawn.

input: Suppose we examine the compound CCCNc1cc(Nc2ccc(C(=O)N3CCOCC3)c3c2OCCO3)nc2[nH]ccc12 [Example 4, trifluoroacetate] ; what IC50 value has been reported?
output: 301 to 1000 nM

input: Subsequent entry: CCNc1cc(Nc2ccc(C(=O)N3CCO[C@H](C)C3)c3c2OCC3)nc2[nH]cc(C(F)(F)F)c12 [Example 260]
output: < 100 nM

input: Subsequent entry: CCNc1cc(Nc2ccc(C(=O)N3CCN(C4CC4)CC3)c3c2OCC3)nc2[nH]cc(C(F)(F)F)c12 [Example 250]
output: < 100 nM

More entries:
input: Suppose we examine the compound CCNc1cc(Nc2ccc(C(=O)N3CCC4(CC3)CC4)c3c2OCC3)nc2[nH]cc(C(F)(F)F)c12 [Example 256] ; what IC50 value has been reported?
output: 101 to 300 nM

input: Subsequent entry: COc1cc(P2(=O)CCN(C3CCOCC3)CC2)ccc1Nc1cc(C2CC2)c2c(C(F)(F)F)c[nH]c2n1 [Example 102]
output: 301 to 1000 nM

input: Subsequent entry: COc1cc(S(C)(=O)=O)ccc1Nc1cc(NC2CCC2)c2c(C#N)c[nH]c2n1 [Example 120]
output: 301 to 1000 nM

input: Subsequent entry: CNc1cc(Nc2ccc(S(=O)(=O)N3CCC(N4CCOCC4)CC3)cc2OC)nc2[nH]cc(C#N)c12 [Example 137]
output: 301 to 1000 nM

* * *

TARGET ENTITY: LRRK2, LRRK2 (G2019S), DYRK1, CLK1 and TTK kinases (Homo sapiens)
Construct: LRRK2 IC50 (marked with *); other: LRRK2; Kinase HotSpot service (Reaction Biology), ATP 10 uM
Sequence (Q5S007 whole entry G2019S): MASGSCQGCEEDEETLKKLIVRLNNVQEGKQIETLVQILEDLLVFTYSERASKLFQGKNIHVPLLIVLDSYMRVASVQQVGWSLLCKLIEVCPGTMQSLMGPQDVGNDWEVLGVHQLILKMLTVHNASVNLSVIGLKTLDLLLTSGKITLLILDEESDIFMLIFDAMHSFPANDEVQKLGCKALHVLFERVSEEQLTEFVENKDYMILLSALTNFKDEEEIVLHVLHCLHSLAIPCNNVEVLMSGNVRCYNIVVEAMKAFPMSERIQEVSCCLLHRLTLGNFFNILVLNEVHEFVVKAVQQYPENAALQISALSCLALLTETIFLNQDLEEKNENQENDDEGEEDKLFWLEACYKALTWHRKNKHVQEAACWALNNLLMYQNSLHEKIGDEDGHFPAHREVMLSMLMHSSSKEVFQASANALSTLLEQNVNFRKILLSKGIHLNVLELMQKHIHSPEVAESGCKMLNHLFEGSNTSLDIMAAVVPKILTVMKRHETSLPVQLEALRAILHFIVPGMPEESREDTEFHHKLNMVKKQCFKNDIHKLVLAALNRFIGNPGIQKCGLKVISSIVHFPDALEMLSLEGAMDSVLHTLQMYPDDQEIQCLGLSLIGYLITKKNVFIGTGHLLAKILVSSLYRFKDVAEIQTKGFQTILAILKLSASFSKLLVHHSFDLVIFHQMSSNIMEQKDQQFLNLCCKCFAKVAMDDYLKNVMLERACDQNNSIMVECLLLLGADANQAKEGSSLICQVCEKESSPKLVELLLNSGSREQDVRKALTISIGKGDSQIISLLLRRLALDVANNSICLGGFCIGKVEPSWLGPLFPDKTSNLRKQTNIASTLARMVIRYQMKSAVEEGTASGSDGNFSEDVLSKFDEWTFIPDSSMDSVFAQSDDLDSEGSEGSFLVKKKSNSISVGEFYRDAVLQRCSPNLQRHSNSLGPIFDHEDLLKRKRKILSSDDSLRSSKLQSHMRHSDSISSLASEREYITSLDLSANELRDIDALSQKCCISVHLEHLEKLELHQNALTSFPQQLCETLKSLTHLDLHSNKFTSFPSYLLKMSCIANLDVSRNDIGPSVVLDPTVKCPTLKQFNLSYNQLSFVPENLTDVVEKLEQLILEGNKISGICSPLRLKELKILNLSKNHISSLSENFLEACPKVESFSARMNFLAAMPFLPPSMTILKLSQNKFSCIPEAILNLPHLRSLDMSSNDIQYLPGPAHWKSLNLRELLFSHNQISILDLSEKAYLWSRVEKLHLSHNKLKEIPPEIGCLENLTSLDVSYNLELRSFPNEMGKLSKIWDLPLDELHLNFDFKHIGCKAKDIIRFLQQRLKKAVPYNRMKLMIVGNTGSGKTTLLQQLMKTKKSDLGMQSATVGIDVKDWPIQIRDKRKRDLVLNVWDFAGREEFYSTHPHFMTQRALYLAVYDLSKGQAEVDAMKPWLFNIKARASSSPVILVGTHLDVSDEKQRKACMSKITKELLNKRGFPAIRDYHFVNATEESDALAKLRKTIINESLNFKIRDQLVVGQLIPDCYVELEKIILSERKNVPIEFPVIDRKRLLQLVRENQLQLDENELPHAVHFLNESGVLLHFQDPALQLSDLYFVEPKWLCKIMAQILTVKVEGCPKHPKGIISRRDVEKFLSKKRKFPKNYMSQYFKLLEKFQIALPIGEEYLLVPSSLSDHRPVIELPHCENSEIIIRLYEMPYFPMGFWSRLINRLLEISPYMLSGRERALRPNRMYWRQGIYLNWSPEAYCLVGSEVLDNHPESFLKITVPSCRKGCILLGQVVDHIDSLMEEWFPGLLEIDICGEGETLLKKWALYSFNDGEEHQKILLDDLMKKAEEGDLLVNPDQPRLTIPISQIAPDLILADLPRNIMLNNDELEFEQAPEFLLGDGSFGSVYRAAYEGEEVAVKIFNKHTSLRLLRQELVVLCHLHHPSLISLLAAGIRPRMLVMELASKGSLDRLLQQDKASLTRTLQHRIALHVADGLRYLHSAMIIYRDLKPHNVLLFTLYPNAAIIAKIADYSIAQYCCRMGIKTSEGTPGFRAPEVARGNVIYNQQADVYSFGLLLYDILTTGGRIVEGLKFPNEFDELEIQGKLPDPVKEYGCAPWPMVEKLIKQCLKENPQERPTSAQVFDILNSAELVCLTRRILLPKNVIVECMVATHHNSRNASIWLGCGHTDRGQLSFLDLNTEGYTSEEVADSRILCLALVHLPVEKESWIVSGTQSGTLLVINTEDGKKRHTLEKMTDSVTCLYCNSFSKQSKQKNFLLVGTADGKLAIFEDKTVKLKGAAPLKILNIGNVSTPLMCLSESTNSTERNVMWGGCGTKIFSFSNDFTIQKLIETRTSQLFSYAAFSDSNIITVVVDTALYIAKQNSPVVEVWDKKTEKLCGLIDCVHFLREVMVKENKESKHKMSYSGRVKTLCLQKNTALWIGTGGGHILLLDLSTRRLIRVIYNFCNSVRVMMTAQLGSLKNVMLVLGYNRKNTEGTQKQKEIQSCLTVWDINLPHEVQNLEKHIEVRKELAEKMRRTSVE
MEASUREMENT PROTOCOL: Enzyme IC50 by Kinase HotSpot service (Reaction Biology Corporation), values marked with *
TEST SETTINGS: LRRK2, ATP 10 uM
Description: Meanwhile, the enzyme IC50 measurement for some compounds was performed using Kinase HotSpot service (Reaction Biology Corporation); during the test, the ATP concentration was 10 uM, where all were conducted under the same condition; and the concentration of the compound was measured by giving a 3-fold concentration gradient with the highest concentration of […], where the values measured using Kinase HotSpot service (Reaction Biology Corporation) were marked with “*”. […]
pIC50: −log10 of the molar value.
MEASUREMENT TYPE: pIC50

input: Under LRRK2, LRRK2 (G2019S), DYRK1, CLK1 and TTK kinases (Homo sapiens): pIC50 value of O=C(c1ccc(Nc2cc(C3CC3)c3c(C(F)(F)F)c[nH]c3n2)c2c1CCO2)N1CC[C@@H](N2CCOCC2)C1 ?
output: 6.52 to 7.00

input: Subsequent entry: O=C(c1ccc(Nc2cc(C3CC3)c3c(C(F)(F)F)c[nH]c3n2)c2c1CCO2)N1CC[C@H](N2CCOCC2)C1
output: 6.52 to 7.00

input: Subsequent entry: COc1cc(S(=O)(=O)N2CCC(N3C[C@H]4C[C@@H]3CO4)CC2)ccc1Nc1cc(C2CC2)c2c(C(F)(F)F)c[nH]c2n1
output: > 7.00

* * *

System: human DYRK1A and Tau
MEASUREMENT PROTOCOL: Tau phosphorylation inhibition, ClariCELL Kinase Cell-Based Assay (Carnabio)
TEST SETTINGS: 0.5 uM
Reported inhibition at 0.5 µM by item:
Lab note: write values as number then unit, every time.

input: Suppose we examine the compound CNc1cc(Nc2ccc(S(=O)(=O)N3CCC(N4C[C@@H]5C[C@H]4CO5)CC3)cc2OC)nc2[nH]cc(C(F)(F)F)c12 ; what inhibition at 0.5 µM value has been reported?
output: 77.2%

More entries:
input: Suppose we examine the compound CCNc1cc(Nc2ccc(C(=O)N3CCN(C4COC4)CC3)c3c2OCCO3)nc2[nH]cc(C(F)(F)F)c12 ; what inhibition at 0.5 µM value has been reported?
output: 28.2%

input: Subsequent entry: CCNc1cc(Nc2ccc(C(=O)N3CCC(N(C)C)CC3)c3c2OCC3)nc2[nH]cc(C(F)(F)F)c12
output: 76.9%

* * *

Reported inhibition at 0.5 µM by item:
Test system: TNF-α
MEASUREMENT PROTOCOL: TNF-α secretion inhibition in LPS-treated THP-1 cells (ELISA)
Type: cell-based
TEST SETTINGS: Homo sapiens, compound 0.5 μM, LPS 500 ng/ml, 24 hours, read-out: THP-1/TNF-a (% inhib)
Field format: number, assumed %, no unit text.

Answered examples (3):
input: Suppose we examine the molecule CCNc1cc(Nc2ccc(C(=O)N3CCOCC3)c3c2OCCO3)nc2[nH]cc(C(F)(F)F)c12 [Example 153] ; what inhibition at 0.5 µM value has been reported?
output: 40.4

input: Subsequent entry: CCNc1cc(Nc2ccc(C(=O)N3CCC(N4C[C@H]5C[C@@H]4CO5)CC3)c3c2OCC3)nc2[nH]cc(C(F)(F)F)c12 [Example 244]
output: 12.7

input: Subsequent entry: CNc1cc(Nc2ccc(S(=O)(=O)N3CCC(N4C[C@H]5C[C@@H]4CO5)CC3)cc2OC)nc2[nH]cc(C(F)(F)F)c12 [Example 243]
output: 2.1

Please find the next molecule below.
input: Suppose we examine the molecule CNc1cc(Nc2ccc(C(=O)N3CCC(N4CCOCC4)CC3)c3c2OCO3)nc2[nH]cc(C(F)(F)F)c12 [Example 235] ; what inhibition at 0.5 µM value has been reported?
output: 36.3

* * *

TARGET ENTITY: CLK2 (Homo sapiens, UniProt P49760)
Construct: purchased DiscoverX
Sequence (P49760 whole entry): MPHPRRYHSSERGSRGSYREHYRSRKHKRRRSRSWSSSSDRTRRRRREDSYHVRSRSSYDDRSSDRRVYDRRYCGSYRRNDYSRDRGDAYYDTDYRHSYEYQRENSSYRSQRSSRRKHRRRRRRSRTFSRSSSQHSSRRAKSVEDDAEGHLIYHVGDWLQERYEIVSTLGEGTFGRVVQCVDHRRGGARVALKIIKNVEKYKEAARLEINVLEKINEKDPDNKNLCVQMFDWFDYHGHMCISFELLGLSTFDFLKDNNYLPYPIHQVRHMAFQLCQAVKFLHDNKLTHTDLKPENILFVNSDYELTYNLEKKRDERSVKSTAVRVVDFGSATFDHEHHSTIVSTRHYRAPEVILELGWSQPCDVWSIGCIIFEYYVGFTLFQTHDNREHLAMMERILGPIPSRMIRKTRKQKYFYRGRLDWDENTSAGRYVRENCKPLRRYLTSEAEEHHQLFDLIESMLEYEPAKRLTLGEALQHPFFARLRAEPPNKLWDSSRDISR
MEASUREMENT PROTOCOL: scanMAX Kinase panel (DiscoverX), % control
Type: binding
TEST SETTINGS: <35% = active
Mark satisfied for remaining binding at 1 µM under 0.6%, not satisfied if at or over.

The examples below pair each entry with its known result.
input: Could you please tell me whether remaining binding at 1 µM recorded for CNc1cc(Nc2ccc(S(=O)(=O)N3CCC(N4CCOCC4)CC3)cc2OC)nc2[nH]cc(C(F)(F)F)c12 is less than 0.6%?
output: satisfied

input: Subsequent entry: O=C(c1ccc(Nc2cc(C3CC3)c3c(C(F)(F)F)c[nH]c3n2)c2c1CCO2)N1CC[C@H](N2CCOCC2)C1
output: satisfied

input: Subsequent entry: COCCNc1cc(Nc2ccc(P3(=O)CCN(C4CC4)CC3)cc2OC)nc2[nH]cc(C(F)(F)F)c12
output: not satisfied

input: Subsequent entry: O=C(c1ccc(Nc2cc(C3CC3)c3c(C(F)(F)F)c[nH]c3n2)c2c1CCO2)N1CC[C@@H](N2CCOCC2)C1
output: satisfied

input: Subsequent entry: CNc1cc(Nc2ccc(C(=O)N3CC[C@H](N4CCOCC4)C3)c3c2OCC3)nc2[nH]cc(C(F)(F)F)c12
output: satisfied

input: Subsequent entry: CCNc1cc(Nc2ccc(P3(=O)CCN(C4CC4)CC3)cc2OC)nc2[nH]cc(C(F)(F)F)c12
output: not satisfied

Pending molecule:
input: Could you please tell me whether remaining binding at 1 µM recorded for CCNc1cc(Nc2ccc(S(=O)(=O)N3CCC(N4CCOCC4)CC3)c3c2OCCO3)nc2[nH]cc(C(F)(F)F)c12 is less than 0.6%?
output: not satisfied

* * *

TARGET ENTITY: TTK (Homo sapiens)
Sequence (P33981 whole entry): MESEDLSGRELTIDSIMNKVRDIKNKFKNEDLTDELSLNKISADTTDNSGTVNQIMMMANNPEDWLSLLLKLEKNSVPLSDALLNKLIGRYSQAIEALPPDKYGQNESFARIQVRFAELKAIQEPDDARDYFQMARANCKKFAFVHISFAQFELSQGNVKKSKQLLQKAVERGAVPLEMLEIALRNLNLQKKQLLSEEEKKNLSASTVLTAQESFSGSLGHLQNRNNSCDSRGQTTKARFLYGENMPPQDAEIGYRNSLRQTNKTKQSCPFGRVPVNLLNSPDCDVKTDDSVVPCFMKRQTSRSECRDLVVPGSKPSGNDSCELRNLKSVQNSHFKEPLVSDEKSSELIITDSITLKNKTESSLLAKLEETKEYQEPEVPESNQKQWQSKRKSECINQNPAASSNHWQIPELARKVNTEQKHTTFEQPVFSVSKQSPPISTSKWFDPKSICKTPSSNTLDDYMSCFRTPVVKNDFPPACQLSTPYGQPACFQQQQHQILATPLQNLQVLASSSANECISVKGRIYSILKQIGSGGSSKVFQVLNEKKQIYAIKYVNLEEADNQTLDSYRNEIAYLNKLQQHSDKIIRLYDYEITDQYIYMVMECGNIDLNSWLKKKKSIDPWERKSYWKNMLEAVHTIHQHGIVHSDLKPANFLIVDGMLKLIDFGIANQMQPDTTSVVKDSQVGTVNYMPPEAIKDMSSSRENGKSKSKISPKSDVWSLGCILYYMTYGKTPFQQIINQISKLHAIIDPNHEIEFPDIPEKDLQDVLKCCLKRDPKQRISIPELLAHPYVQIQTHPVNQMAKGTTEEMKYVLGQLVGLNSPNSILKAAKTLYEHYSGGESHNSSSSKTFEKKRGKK
MEASUREMENT PROTOCOL: TTK enzyme inhibition, ADP-Glo kinase assay
Type: biochemical
Parameters: purchased Signalchem T20-10G
TEST SETTINGS: ATP 5 μM
pIC50: −log10 of the molar value.
Reported pIC50 by item:

Answered examples (5):
input: Suppose we examine the molecule CCNc1cc(Nc2ccc(C(=O)N3C[C@@H]4C[C@H]3CO4)c3c2OCCO3)nc2[nH]cc(C(F)(F)F)c12 ; what pIC50 value has been reported?
output: > 7.00

input: Subsequent entry: COc1cc(S(=O)(=O)N2CCOCC2)ccc1Nc1cc(C2CC2)c2c(C(F)(F)F)c[nH]c2n1
output: > 7.00

input: Subsequent entry: CCNc1cc(Nc2ccc(C(=O)N3CCN(C4COC4)CC3)c3c2OCCO3)nc2[nH]cc(C(F)(F)F)c12
output: > 7.00

input: Subsequent entry: CNc1cc(Nc2ccc(P3(=O)CCN(C4CC4)CC3)cc2OC)nc2[nH]cc(C#N)c12
output: > 7.00

input: Subsequent entry: CCNc1cc(Nc2ccc(C(=O)N3CCN(C4COC4)CC3)c3c2OCC3)nc2[nH]cc(C(F)(F)F)c12
output: > 7.00

Please find the next molecule below.
input: Suppose we examine the molecule CNc1cc(Nc2ccc(C(=O)N3CC[C@@H](N4CCOCC4)C3)c3c2OCC3)nc2[nH]cc(C(F)(F)F)c12 ; what pIC50 value has been reported?
output: 6.52 to 7.00
